Test: basal 3T3-L1 adipocyte mitochondrial potential changes, profiling panel, cell-based, JC-1 fluorescence, 3T3-L1 adipocytes, 24 h, 100 nL compound (AID 1168); also: test concentration not given here
Details: JC-1 mitochondrial fluorescence, higher = more signal, called active from +8 up or from −8 down
Give measured z-score for each item. Keep answers brief.
Reply with the value as a number alone.

Query :: GET /values?readout=z-score&item= CC(C)CON=C1[C@H]2CCn3c(=O)n(-c4ccccc4)c(=O)n3[C@H]2[C@H](O)[C@@H]2O[C@H]12
Result :: -0.0969

Query :: Query (compound): CO[C@H]([C@@H](C)[C@H](OC)c1ccccc1)[C@H](C)[C@@H](OC)[C@H](C)C(C)=O ; field requested: z-score
Result :: 1.16

Query :: Can you share its z-score? I mean this compound: CC(C)c1ccc(NN2C(C(O)c3ccc4c(c3)OCO4)C=CC3C(=O)N(c4ccccc4)C(=O)C32)cc1 (stereo not given)
Result :: -0.462

Query :: Fill blank: measured z-score of the compound COc1cccc([C@H]2Oc3ccc(OC)cc3C(=NO[C@H](C)c3cn([C@@H]4COC[C@H]4O)nn3)[C@@H]2O)c1 is ____.
Result :: 0.839

Query :: // returns reported z-score for input CO[C@@H]1COC(=O)CC=C[C@@H](C)[C@@H]2C=C[C@H](O)[C@@H](COC(=O)CCC[C@H]1C)O2
Result :: -0.546

Query :: z-score lookup needed for COCCOC(=O)N1C(=O)[C@@]2(c3cc(C#CC4(O)CCCCCC4)ccc31)[C@H](C(=O)N1CCN(c3ncccn3)CC1)[C@H]1C(=O)O[C@H](c3ccccc3)[C@H](c3ccccc3)N1[C@@H]2c1ccc(OCCO)cc1 , thanks.
Result :: -0.224

Query :: Please give the measured z-score for this compound: CC(=O)OC[C@H]1O[C@H](C#CCCCc2ccccc2)C=C[C@@H]1OC(C)=O
Result :: 0.288

Query :: If you can, please state the reported z-score value of CN1C(=O)C2C=CC(C(O)C(c3ccccc3)c3ccccc3)N(NC(=O)OC(C)(C)C)C2C1=O (stereo not given) .
Result :: -0.378

Query :: // z-score lookup, key: O=C1[C@H]2[C@H]3[C@H](O)[C@H](O)CC(=NOC[C@@H](O)COCc4ccco4)[C@@H]3CC[C@H]2C(=O)N1c1ccc(F)cc1F
Result :: -0.116

Query :: What measured z-score goes with COc1ccc(CCNC(=O)[C@@H]2c3ccccc3C(=O)N(c3ccc(C)cn3)[C@H]2c2ccc(CO)cc2)cc1 ?
Result :: -0.195

Query :: Bench note: what z-score did CC(C)=NOCc1ccc(-c2cc(-c3ccccc3)no2)cc1 show?
Result :: -0.618

Query :: Bench note: what z-score did COC(=O)CC=C[C@H](C)[C@H](CO)NS(=O)(=O)c1ccc(C)cc1 show?
Result :: -0.0535

Query :: Item under review: COCCOC(=O)N1C(=O)[C@@]2(c3ccccc31)[C@H](C(N)=O)[C@H]1C(=O)O[C@H](c3ccccc3)[C@H](c3ccccc3)N1[C@@H]2c1ccccc1OCCO . Reported z-score?
Result :: 0.633

Query :: Please report the recorded z-score for COC(=O)C1=C(C)N(Cc2ccccc2)[C@]23O[C@](C(=O)OC)(C(=O)N2[C@@H]1c1ccccc1)[C@H]1CCOC(=O)[C@H]13 .
Result :: 0.642

Query :: Given C=C(/C(=C/C[C@H](OC(=O)c1ccncc1)c1ccc(OCCO)cc1)c1cnc2ccccc2c1)C(C)C , state its recorded z-score.
Result :: -0.69

Query :: Report z-score for O=C1C[C@@H](O)[C@@H](O)[C@@H]2[C@@H]3C(=O)N(Cc4ccc5c(c4)OCO5)C(=O)[C@@H]3CC[C@@H]12 please.
Result :: -0.409

Query :: Bench note: what z-score did COC(=O)[C@@]1(Cc2ccc(F)cc2)[C@@H]2C(=CC(=O)[C@H]2CC(=O)C(=O)N(C)C)CN1C(=O)c1ccccc1 show?
Result :: 0.441

Query :: Record request: z-score value, item Cn1c(=O)n2n(c1=O)[C@H]1[C@H](O)[C@@H]3O[C@@H]3C(=NOC[C@@H](O)COCc3ccco3)[C@H]1CC2
Result :: -0.439

Query :: Could you share which z-score value was measured for CC=CC1=C(CO)[C@H](O)[C@H]2O[C@H]2[C@H]1O ?
Result :: 0.382

Query :: Return reported z-score; argument: CCN1C(=O)[C@H]2[C@H]3[C@H](O)[C@H](O)CC(=NOC(C)CN4CCCCc5nc(C)c(C)cc54)[C@@H]3CC[C@H]2C1=O (stereo not given in full)
Result :: -1.21

Query :: Give its z-score value. Item: CC(C)=CCCC(C)=CCON=C1[C@H]2CCn3c(=O)n(Cc4cc5c(cc4Cl)OCO5)c(=O)n3[C@H]2[C@H](O)[C@@H]2O[C@H]12
Result :: -0.992

Query :: Reported z-score, compound CC(C)NC(=O)[C@@]1(C)c2ccccc2C(=O)N(Cc2cc(F)cc(C(F)(F)F)c2)[C@H]1c1ccc(CO)cc1 : ____
Result :: -0.327

Query :: Record request: z-score value, item C[C@H](c1ccccc1)N1C(=O)[C@H]2[C@@H]3C(=CC[C@H]2C1=O)C(=O)[C@H]1O[C@H]1[C@H]3O
Result :: 1.02

Query :: Using the record for CO[C@@H]1COC(=O)CC=C[C@@H](C)[C@@H]2C=C[C@H](O)[C@@H](COC(=O)[C@H](C)NC(=O)CC=C[C@H]1C)O2 , report its z-score.
Result :: -1.62

Query :: # lookup: z-score of C[C@H]1CC[C@@H](C(=O)O)N[C@@H]1c1ccc(C#CCN(C)C)cc1
Result :: 0.461

Query :: Which z-score value is on record for C[C@@H]1C=CCC(=O)OC[C@H](C)C(=O)OC[C@H]2O[C@H]1C=C[C@H]2O ?
Result :: 0.36

Query :: For the compound CO[C@@H]1COC(=O)CCC[C@@H](C)[C@H](OC)COC(=O)[C@H](Cc2ccccc2)NC(=O)CC=C[C@H]1C , what z-score is on record?
Result :: -1.18

Query :: # input compound: C#CCCCON=C1C[C@@H](O)[C@@H](O)[C@@H]2[C@@H]3C(=O)N(Cc4ccccc4)C(=O)[C@@H]3CC[C@H]12 ; wanted: its z-score
Result :: 0.381

Query :: Please give the measured z-score for this compound: CC(C)=CCCC(C)=CCON=C1[C@H]2CCn3c(=O)n(C)c(=O)n3[C@H]2[C@H](O)[C@@H]2O[C@H]12
Result :: -0.14

Query :: Would you mind telling me what z-score value was observed for CCCNC(=O)[C@@H]1c2ccccc2C(=O)N(Cc2ccccc2Cl)[C@H]1c1ccc(CO)cc1 ?
Result :: 0.0089
